Recorded values, source the supplement of paper PMC12494721.

Tested on: Ruminococcus gnavus DSM 108212
Test: growth (OD595) fold change vs plate DMSO controls (fold change (ratio)); higher = more growth
Details: incubation time: 27 h, anaerobic, 37 °C
Structures can show the parent of a compound that is named as a salt.
metricName: growth

molecule	subjectOfTest	growth
CC(=O)Oc1cc(C(C)C)c(OCCN(C)C)cc1C [Moxisylyte hydrochoride] (20 µM)	Ruminococcus gnavus DSM 108212	1.22
Nc1c(CC(=O)O)cccc1C(=O)c1ccc(Br)cc1 [Bromfenac] (20 µM)	Ruminococcus gnavus DSM 108212	1.13
COc1ccc(CC2c3cc(OC)c(OC)cc3CC[N+]2(C)CCC(=O)OCCCCCOC(=O)CC[N+]2(C)CCc3cc(OC)c(OC)cc3C2Cc2ccc(OC)c(OC)c2)cc1OC (stereo unspecified) [Atracurium besylate] (20 µM)	Ruminococcus gnavus DSM 108212	1.13
CC(C)(C)NC[C@H](O)COc1nsnc1N1CCOCC1 [Timolol maleate salt] (20 µM)	Ruminococcus gnavus DSM 108212	1.01
O=C1Cc2cc(CCN3CCN(c4nsc5ccccc45)CC3)c(Cl)cc2N1 [Ziprasidone hydrochloride monohydrate] (20 µM)	Ruminococcus gnavus DSM 108212	1.23

Hi! What's the reported growth for CN1CCN(C2Cc3ccccc3Sc3ccc(Cl)cc32)CC1 (stereo unspecified) [Octoclothepin maleate salt] (20 µM) on Ruminococcus gnavus DSM 108212?
0.931

Record: CC(C)(S)C(N)C(=O)O (racemic) [D,L-Penicillamine] (20 µM)
0.873

----------
# fold change of Putrescine concentration listing for each entry below
Test system: Escherichia coli IAI1
Experiment: fold change of Putrescine concentration vs plate DMSO controls (fold change (ratio)); higher = more amine produced, active = hit call of the paper (significant change in both replicates, either direction)
Conditions: incubation time: 27 h, anaerobic, 37 °C
Structures can show the parent of a compound that is named as a salt.
Lab note: jot the number down without any unit.

Recorded fold change of Putrescine concentration, per entry:
> print(dat)
                                   compound          subjectoftest                               metricname  endpointvalue
1  Cc1noc(NS(=O)(=O)c2ccc(N)cc2)c1C [Sulfisoxazole] (20 µM)  Escherichia coli IAI1  fold change of Putrescine concentration           1.03
2  Cc1c(C)c2c(c(C)c1O)CCC(C)(COc1ccc(CC3SC(=O)NC3=O)cc1)O2 (stereo not given) [Troglitazone] (20 µM)  Escherichia coli IAI1  fold change of Putrescine concentration           1.01
3  CCCCC(O)c1ccccc1 (stereo not given) [Fenipentol] (20 µM)  Escherichia coli IAI1  fold change of Putrescine concentration           1.01
4  C[N+]1(CCCCC[N+]2(C)CCCC2)CCCC1 [Pentolinium bitartrate] (20 µM)  Escherichia coli IAI1  fold change of Putrescine concentration           1.03

Sample O=S(=O)(c1cccc2cnccc12)N1CCCNCC1 [Fasudil Hydrochloride] (20 µM) — what was its fold change of Putrescine concentration?
1.01

----------
System: Klebsiella aerogenes DSM 30053
Assay: fold change of Histamine concentration vs plate DMSO controls (fold change (ratio)); higher = more amine produced, active = hit call of the paper (significant change in both replicates, either direction)
Settings: incubation time: 27 h, anaerobic, 37 °C
Structures can show the parent of a compound that is named as a salt.
metricName: fold change of Histamine concentration
// no unit string in output, number only

Some solved entries appear below for comparison.
> print(dat)
                                   compound  endpointvalue
1  Cc1c(C(=O)NN2CCCCC2)nn(-c2ccc(Cl)cc2Cl)c1-c1ccc(Cl)cc1 [Rimonabant] (20 µM)           1.03
2  Nc1ccc(S(=O)(=O)Nc2nccs2)cc1 [Sulfathiazole] (20 µM)              1
3  CCN1CCC[C@H]1CNC(=O)c1c(OC)ccc(Br)c1OC [Remoxipride hydrochloride] (20 µM)           1.04

Next compound, fold change of Histamine concentration to be filled in.
I am curious: what fold change of Histamine concentration value has been reported for C[C@H](CCC(=O)O)[C@H]1CC[C@H]2[C@@H]3[C@H](O)C[C@@H]4C[C@H](O)CC[C@]4(C)[C@H]3CC[C@]12C [Chenodiol] (20 µM) ?
1
